Test system: TK-10 renal
Experiment: NCI tumour cell line growth inhibition, 48 h
# Lookup of reported TGI keyed by entry
quantityName: TGI

>>> reading("OCCN1CCCN(CCCN2c3ccccc3Sc3ccc(C(F)(F)F)cc32)CC1")
"3.58 µM"
>>> reading("COc1ccc(C2CC(c3cccc(Nc4ccncc4)c3)=NN2c2ccccc2)cc1 (stereo not given)")
"4.43 µM"
>>> reading("CCOc1ccc(Nc2nc(N)nc(N)c2N=O)cc1")
"> 100 µM"
>>> reading("Cc1cc2nc3c(C(OC4OC(CO)C(O)C(O)C4O)C(O)CO)nn(-c4ccc(F)cc4)c3nc2cc1C (stereo not given)")
"> 100 µM"
>>> reading("Oc1ccccc1/C=N/c1nc(-c2ccccc2)cs1")
"> 100 µM"
>>> reading("CCn1c(-c2cc3ccccc3cc2OC(C)=O)n[nH]c1=S")
"75.6 µM"
>>> reading("CC(=O)N1CN2C(=O)CCC2c2cc(C)ccc21 (stereo not given)")
"> 100 µM"
>>> reading("Cc1cc(C)nc(NS(=O)(=O)c2ccc(NC(=O)c3ccc4nc5ccccc5c(Nc5ccc(S(=O)(=O)N=C(N)N)cc5)c4c3)cc2)n1")
"> 100 µM"
>>> reading("CCOC(=O)CC1C(C(=O)OCC)=Cn2c([nH]c3cccc4cccc2c43)=C1C(=O)OCC (stereo not given)")
"> 100 µM"
>>> reading("c1ccc(CN2CCC(CNc3ncnc4ccccc34)C2)cc1 (stereo not given)")
"> 100 µM"

Origin of the recorded values: PubChem BioAssay (NCI)
